Biological target: hVDAC1 (Homo sapiens, UniProt P21796)
Sequence (P21796 whole entry): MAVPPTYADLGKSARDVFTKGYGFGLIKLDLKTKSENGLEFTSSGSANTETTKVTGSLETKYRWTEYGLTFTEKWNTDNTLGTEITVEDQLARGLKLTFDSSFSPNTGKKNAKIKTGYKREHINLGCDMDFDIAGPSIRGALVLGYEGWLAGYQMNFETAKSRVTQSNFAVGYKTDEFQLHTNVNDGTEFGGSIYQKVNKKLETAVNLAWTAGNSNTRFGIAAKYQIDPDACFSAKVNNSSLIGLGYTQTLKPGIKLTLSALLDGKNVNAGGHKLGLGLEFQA
Experiment: MST dose-response experiment
Type: binding
Details: MST dose-response, 100 nM hVDAC1, 16 concentrations
property label: Kd

input_smiles=C=C(C)[C@@H]1CCC(C)=C[C@H]1c1c(O)cc(CCCCC)cc1O measured_value="< 10 µM"

Recorded Kd of `COc1cc(/C=C/C(=O)CC(=O)/C=C/c2ccc(O)c(OC)c2)ccc1O` , please.
< 10 µM

---

Biological target: hVDAC1 (Homo sapiens, UniProt P21796)
Assay: MST dose-response experiment
Assay type: binding
// reported Kd per item
// note: answer is a bare numeric in µM

Need Kd of `Cc1cc(O)c2c(c1)C(=O)c1cc(O)cc(O)c1C2=O` , thanks.
10

Then this molecule: `COc1cc(/C=C/C(=O)CC(=O)/C=C/c2ccc(O)c(OC)c2)ccc1O`
6

Please answer likewise for CCC(C)n1ncn(-c2ccc(N3CCN(c4ccc(OCC5COC(Cn6cncn6)(c6ccc(Cl)cc6Cl)O5)cc4)CC3)cc2)c1=O (centres unmarked)
5

One more molecule: `C=C(C)[C@@H]1CCC(C)=C[C@H]1c1c(O)cc(CCCCC)cc1O`
6
